System: SNB-75 CNS
Experiment: NCI tumour cell line growth inhibition, 48 h
Below is a list of entries, each paired with its recorded TGI value.
Outcome measure: TGI

- Compound: "O=C(c1ccccc1)N(C(=O)c1ccccc1)c1nc(SCc2ccccc2)ns1"
  Test value: "58.1 µM"
- Compound: "c1ccc(CCc2cccnc2)nc1"
  Test value: "> 100 µM"
- Compound: "COc1ccc(/C=C2\\CCC(C)(CN(C)C)C2=O)cc1OC (stereo unspecified)"
  Test value: "> 100 µM"
- Compound: "Cc1cccc2c3c(sc12)C(c1ccc(Cl)cc1)C(C#N)=C(N)O3 (stereo unspecified)"
  Test value: "0.71 µM"
- Compound: "O=C(CCCCCCN1CC(=O)N2[C@@H](c3ccc(Cl)c(Cl)c3)c3[nH]c4ccccc4c3C[C@H]2C1=O)NO"
  Test value: "7 µM"
- Compound: "Clc1cc(Cl)cc(N=C/C=C/Nc2cc(Cl)cc(Cl)c2)c1"
  Test value: "39.3 µM"
- Compound: "C/C(=C\\CBr)CCC(Br)C(C)(C)Cl (stereo unspecified)"
  Test value: "> 100 µM"
- Compound: "CCC(=O)C(CCN1CCC2(CCCc3ccccc32)CC1)(c1ccccc1)c1ccccc1"
  Test value: "> 27.2 µM"
- Compound: "CC1(C)OC(=S)N(c2ccccc2)C12C=Cc1ccccc1O2 (stereo unspecified)"
  Test value: "> 100 µM"
- Compound: "CCOC(=O)C1(C(=O)OCC)[C@@H](c2ccccc2)C2=NO[C@@H]3CCC[C@H]1[C@H]23"
  Test value: "> 100 µM"
- Compound: "c1cnc2c(c1)ccc1cccnc12"
  Test value: "> 39.7 µM"

# credit: PubChem BioAssay (NCI)
